- System: HEK293T (UBE3A T485A transfected, BAR Wnt reporter)
- test: Renilla luciferase signal (cell health) relative to plate median (fold (linear ratio)); higher = higher Renilla signal
- studyConditions: concentration: 100 uM; 24 h
Over roughly 1,100 compounds, “Renilla luciferase signal (cell health) relative to plate median” has its median near 0.97; the highest 2% begin near 1.6. For the sample, the highest values were picked, then their nearest neighbours and some compounds at random.
Renilla luciferase signal listing for selected molecules.
Just the number, please.

Example entries begin here.
> print(dat)
                                   molecule           measuredendpoint  numericresult
1  FC(F)C(F)(F)OCC(Cn1cncn1)c1ccc(Cl)cc1Cl (stereo not given)  Renilla luciferase signal         0.0289
2     O=[N+]([O-])c1ccc(O)c([N+](=O)[O-])c1  Renilla luciferase signal          0.305
3      CCOP(=S)(OCC)SCn1c(=O)oc2cc(Cl)ccc21  Renilla luciferase signal          0.931
4              COC(=O)NS(=O)(=O)c1ccc(N)cc1  Renilla luciferase signal              2
5                      O=[N+]([O-])c1ccccc1  Renilla luciferase signal          0.932

Please turn your attention to the following entry.
Q) Fill in the blank: the reported Renilla luciferase signal of `O=C(N[C@H](c1ccccc1)[C@@H]1CN2CCC1CC2)c1c(Cl)ccc(C(F)(F)F)c1Cl` is ____.
A) 0.143

* * *

- Test system: HEK293T (UBE3A T485A transfected, BAR Wnt reporter)
- test: Renilla luciferase signal (cell health) relative to plate median (fold (linear ratio)); higher = higher Renilla signal
- studyConditions: concentration: 0.01 uM; 24 h
Whole data set: some 1,100 compounds, median “Renilla luciferase signal (cell health) relative to plate median” near 0.97, cut for the highest 2% near 1.6. The entries come from a sample that favours the highest values as a whole.
measuredEndpoint: Renilla luciferase signal
Just the number, please.

Example entries begin here.
> print(dat)
                                   compound  numericresult
1                        CCCSP(=O)(OCC)SCCC           1.13
2                    CCCCSP(=O)(SCCCC)SCCCC           1.14
3  CCOC(=O)COc1cc(-c2nn(C)c(OC(F)F)c2Cl)c(F)cc1Cl          0.786
4  Cc1nn(-c2cc(NS(C)(=O)=O)c(Cl)cc2Cl)c(=O)n1C(F)F           1.01

Please turn your attention to the following entry.
Q) I'm curious: which Renilla luciferase signal was measured for COP(=O)(NC(C)=O)SC (stereo not given) [Acephate] tested on HEK293T (UBE3A T485A transfected, BAR Wnt reporter)?
A) 0.777

* * *

- Test system: HEK293T (UBE3A T485A transfected, BAR Wnt reporter)
- test: Renilla luciferase signal (cell health) relative to plate median (fold (linear ratio)); higher = higher Renilla signal
- studyConditions: concentration: 100 uM; 24 h
In all, about 1,100 compounds were measured (“Renilla luciferase signal (cell health) relative to plate median”: median about 0.97, highest 2% from about 1.6 on). The sample holds the highest values, similar compounds and a random draw of the others, so the mix is not that of the screen.
Renilla luciferase signal listing for selected compounds.
Just the number, please.

> print(dat)
                   givensmiles  numericresult
1                       OCCCBr          0.976
2  Cc1cc(Cc2ccc(N)c(C)c2)ccc1N          0.647

Q) Fill in the blank: the reported Renilla luciferase signal of `CS/C(C)=N/OC(=O)N(C)SN(C)C(=O)O/N=C(\C)SC` is ____.
A) 0.0128

* * *

Renilla luciferase signal listing for selected compounds.
- Test system: HEK293T (UBE3A T485A transfected, BAR Wnt reporter)
- test: Renilla luciferase signal (cell health) relative to plate median (fold (linear ratio)); higher = higher Renilla signal
- studyConditions: concentration: 0.1 uM; 24 h
In all, about 1,100 compounds were measured (“Renilla luciferase signal (cell health) relative to plate median”: median about 0.97, highest 2% from about 1.6 on). This excerpt belongs to a sample that is enriched for the highest values.
Just the number, please.

Example entries begin here.
> print(dat)
                                   compound  numericresult
1  CCOC(=O)c1ccccc1C(=O)OCC [Diethyl phthalate]          0.834
2                  CC(C)OC(=O)Nc1cccc(Cl)c1          0.618
3  CCC1(c2ccccc2)C(=O)N=C([O-])NC1=O.[Na+] (centres undefined) [Phenobarbital sodium]          0.831
4                      Nc1nc(N)nc(NC2CC2)n1          0.889
5                                    OCCCBr          0.865
6  O=C(O)C(F)(F)C(F)(F)C(F)(F)C(F)(F)C(F)(F)C(F)(F)C(F)(F)F          0.781
7  O=C1C2(Cl)C3(Cl)C4(Cl)C(Cl)(Cl)C5(Cl)C3(Cl)C1(Cl)C5(Cl)C24Cl (centres undefined)           1.03
8  CC(Oc1cccc(Cl)c1)C(=O)O (centres undefined)          0.701

Please turn your attention to the following entry.
Q) Fill in the blank: the reported Renilla luciferase signal of `O=C(O)C(F)(F)C(F)(F)C(F)(F)C(F)(F)C(F)(F)C(F)(F)C(F)(F)C(F)(F)C(F)(F)C(F)(F)F` is ____.
A) 0.861

* * *

- Tested on: HEK293T (UBE3A T485A transfected, BAR Wnt reporter)
- test: Renilla luciferase signal (cell health) relative to plate median (fold (linear ratio)); higher = higher Renilla signal
- studyConditions: concentration: 0.1 uM; 24 h
Whole data set: some 1,100 compounds, median “Renilla luciferase signal (cell health) relative to plate median” near 0.97, cut for the highest 2% near 1.6. This excerpt belongs to a sample that is enriched for the highest values.
measuredEndpoint: Renilla luciferase signal
Just the number, please.

> print(dat)
                                   molecule                             targetofassay  numericresult
1  CCCCOC(=O)[C@@H](C)Oc1ccc(Oc2ccc(C#N)cc2F)cc1  HEK293T (UBE3A T485A transfected, BAR Wnt reporter)           1.04

Q) Fill in the blank: the reported Renilla luciferase signal of `CCN(CC)c1nc(C)cc(OP(=S)(OC)OC)n1` is ____.
A) 1.2

Q) Fill in the blank: the reported Renilla luciferase signal of COC(=O)C(C)Oc1ccc(Oc2ccc(Cl)cc2Cl)cc1 (stereo not given) is ____.
A) 0.869

Q) Fill in the blank: the reported Renilla luciferase signal of [N-]=[N+]=[N-].[Na+] [Sodium azide] is ____.
A) 1.11

Q) Fill in the blank: the reported Renilla luciferase signal of `CNC(=O)ON=C(C)SC` is ____.
A) 0.951

* * *

- System: HEK293T (UBE3A T485A transfected, BAR Wnt reporter)
- test: Renilla luciferase signal (cell health) relative to plate median (fold (linear ratio)); higher = higher Renilla signal
- studyConditions: concentration: 1 uM; 24 h
In all, about 1,100 compounds were measured (“Renilla luciferase signal (cell health) relative to plate median”: median about 0.97, highest 2% from about 1.6 on). The entries come from a sample that favours the highest values as a whole.
Categories are defined by ranges of Renilla luciferase signal, namely low group (below 0.9), middle group (0.9 to below 1), high group (1 or more)

> print(dat)
                                    compound     classname
 1   C=CC(=O)OCCCCCC(C)C [Isooctyl acrylate]     low group
 2  CCC(C)(NC(=O)c1cc(Cl)c(C)c(Cl)c1)C(=O)CCl (stereo not given) [Zoxamide]  middle group
 3                      CCC(C)(C)c1ccc(O)cc1     low group
 4  CCCN(CCC)c1c([N+](=O)[O-])cc(S(N)(=O)=O)cc1[N+](=O)[O-]  middle group
 5                CCNC(=O)NC(=O)/C(C#N)=N/OC    high group
 6     O=[N+]([O-])c1ccc(O)c([N+](=O)[O-])c1    high group
 7                  Nc1ccc(/N=N/c2ccccc2)cc1     low group
 8                                Cc1ccccc1N    high group
 9  COC(=O)N(OC)c1ccccc1COc1ccn(-c2ccc(Cl)cc2)n1     low group
10        O=[As][O-].[Na+] [Sodium arsenite]     low group

Q) Band for Cc1c(F)c(F)c(COC(=O)C2C(/C=C(\Cl)C(F)(F)F)C2(C)C)c(F)c1F (stereo not given) ?
A) high group

Q) Band for CCOP(=O)(SC(C)CC)N1CCSC1=O (stereo not given) [Fosthiazate] ?
A) high group

Q) Band for CCC(C)c1ccc(O)cc1 (stereo not given) ?
A) high group

Q) Band for `CN(C)c1ccc(C(=O)c2ccc(N(C)C)cc2)cc1` ?
A) high group

Q) Band for `CNc1cnn(-c2cccc(C(F)(F)F)c2)c(=O)c1Cl` ?
A) low group

Q) Band for `Nc1ccc(Cl)cc1N` ?
A) middle group
